target: Mdm2/p53 binding (GST-Mdm2 / His-p53) (Homo sapiens, UniProt Q00987, L33E); construct: Mdm2 partial protein having Mdm2 amino acids at positions 25 to 108; test: Mdm2/p53 binding assay (HTRF, His-p53 and GST-Mdm2); details: His-p53 (aa 1-132) and GST-Mdm2 (aa 25-108, L33E) 6.25 nM each; 25°C, 1 hour; values given as ranges
Sequence (Q00987 25-108 L33E): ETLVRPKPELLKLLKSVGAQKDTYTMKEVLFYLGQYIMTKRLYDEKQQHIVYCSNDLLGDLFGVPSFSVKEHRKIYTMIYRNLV
pIC50: −log10 of the molar value.
Measurement Kind: pIC50

>>> result("CC1(C)CCC2(CC1)N[C@@H](C(=O)N[C@@H]1CC[C@@H](CO)OC1)[C@H](c1ccnc(Cl)c1)[C@]21C(=O)Nc2cc(Cl)ccc21 [Example 13]")
"7.30 to 9.00"
>>> result("COCc1nnc([C@H]2CC[C@H](NC(=O)[C@@H]3NC4(CCC(C)(C)CC4)[C@@]4(C(=O)Nc5cc(Cl)ccc54)[C@H]3c3ccnc(Cl)c3F)CC2)o1 [Example 159]")
"7.00 to 7.30"

Return the recorded pIC50 value; entry: CN(C)C(=O)[C@@H]1CC[C@@H](NC(=O)[C@@H]2NC3(CCC(C)(C)CC3)[C@@]3(C(=O)Nc4cc(Cl)ccc43)[C@H]2c2ccnc(Cl)c2F)CO1 [Example 100] 7.30 to 9.00

====

Target: Mdm2/p53 binding (GST-Mdm2 / His-p53) (Homo sapiens, UniProt Q00987, L33E)
Construct: Mdm2 partial protein having Mdm2 amino acids at positions 25 to 108
Assay: Mdm2/p53 binding assay (HTRF, His-p53 and GST-Mdm2)
Conditions: His-p53 (aa 1-132) and GST-Mdm2 (aa 25-108, L33E) 6.25 nM each; 25°C, 1 hour; values given as ranges
Description: A protein dilution containing 6.25 nM each of His-p53 (fusion protein of a p53 partial protein having p53 amino acids at positions 1 to 132, with a histidine protein) and GST-Mdm2 (fusion protein of an Mdm2 partial protein having Mdm2 amino acids at positions 25 to 108 with leucine residue 33 substituted by glutamic acid, with glutathione transferase) proteins was prepared using a protein buffer solution (20 mM HEPES pH 7.4, 150 mM NaCl, 0.1% BSA). […]
pIC50: −log10 of the molar value.
pIC50 values by entry

>>> result("CC1(C)CCC2(CC1)N[C@@H](C(=O)N[C@@H]1CC[C@@H](C(C)(C)O)OC1)[C@H](c1ccnc(Cl)c1F)[C@]21C(=O)Nc2nc(Cl)ccc21 [Example 47]")
"7.00 to 7.30"
>>> result("COCCN(C)C(=O)[C@@H]1CC[C@@H](NC(=O)[C@@H]2NC3(CC(CF)(CF)C3)[C@@]3(C(=O)Nc4cc(Cl)ccc43)[C@H]2c2cccc(Cl)c2F)CO1 [Example 139]")
"7.30 to 9.00"
>>> result("CC1(C)CCC2(CC1)N[C@@H](C(=O)N[C@H]1C[C@H](C(=O)NC3CCOCC3)C1)[C@H](c1ccnc(Cl)c1F)[C@]21C(=O)Nc2cc(Cl)ccc21 [Example 120]")
"7.30 to 9.00"
>>> result("CC1(C)CCC2(CC1)N[C@@H](C(=O)N[C@H]1CO[C@H](CO)C(C)(O)C1)[C@H](c1ccnc(Cl)c1F)[C@]21C(=O)Nc2cc(Cl)ccc21 (single isomer, unassigned) [Example 85]")
"7.30 to 9.00"

# context switch: different compound, same pIC50
Name the recorded pIC50 of the compound listed here: CC1(C)CCC2(CC1)N[C@@H](C(=O)NC1(C)CC[C@@H](C(N)=O)OC1)[C@H](c1ccnc(Cl)c1F)[C@]21C(=O)Nc2cc(Cl)ccc21 (some centres unmarked) [Example 189] 7.30 to 9.00
